# subject.of.test: Sphingosine 1-phosphate receptor 1 (Homo sapiens, UniProt P21453)
# Sequence (P21453 whole entry): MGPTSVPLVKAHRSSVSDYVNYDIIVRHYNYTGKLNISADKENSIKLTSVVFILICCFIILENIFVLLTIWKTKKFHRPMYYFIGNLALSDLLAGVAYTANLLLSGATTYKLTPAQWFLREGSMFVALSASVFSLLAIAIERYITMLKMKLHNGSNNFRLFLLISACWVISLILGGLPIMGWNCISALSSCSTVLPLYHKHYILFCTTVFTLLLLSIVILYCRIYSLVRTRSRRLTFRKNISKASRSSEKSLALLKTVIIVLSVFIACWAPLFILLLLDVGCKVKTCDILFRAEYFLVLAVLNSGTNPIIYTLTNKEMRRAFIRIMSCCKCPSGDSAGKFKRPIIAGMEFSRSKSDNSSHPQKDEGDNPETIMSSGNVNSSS
# experiment.summary: direct activation of human S1P1 – cell-based, agonist mode, 60K MLSMR set, dose response (AID 468)
# pEC50 per record follows
pEC50 (log units): -log10 of the concentration in mol/L.

The following compounds have reported results that may help.
{"compound": "CCOC(=O)N1CCN(C(=O)C2CCN(c3ncnc4c3sc3cccc(F)c34)CC2)CC1", "reported.result": 5.23}
{"compound": "O=C(Nc1ccc(C(F)(F)F)cc1)C1CCCN1S(=O)(=O)c1cccc2cccnc12 (configuration not stated)", "reported.result": 5.01}
{"compound": "Cc1cc(C(=O)CSc2nnnn2-c2ccc(O)cc2)c(C)n1Cc1ccc2c(c1)OCO2", "reported.result": 5.23}

**Query** Param readout= pEC50; system= Sphingosine 1-phosphate receptor 1 (Homo sapiens, UniProt P21453); entry= COc1cccc(NC(=O)Nc2nnc(N3CCCCC3C)s2)c1 (configuration not stated) ; returns value.
**Result** 5.06

---

# subject.of.test: Sphingosine 1-phosphate receptor 1 (Homo sapiens)
# experiment.summary: direct activation of human S1P1 – cell-based, agonist mode, 60K MLSMR set, dose response (AID 468)
pEC50: −log10 of the molar value.
quantity: pEC50

The following molecules have reported results that may help.
{"molecule": "Cc1ccc2[nH]c3c(N4CCN(Cc5ccc6c(c5)OCO6)CC4)ncnc3c2c1", "subject.of.test": "Sphingosine 1-phosphate receptor 1 (Homo sapiens)", "pEC50": "< 4.52"}
{"molecule": "COc1ccccc1-n1nnnc1SCc1cc2c(cc1Br)OCO2", "subject.of.test": "Sphingosine 1-phosphate receptor 1 (Homo sapiens)", "pEC50": "< 5.00"}
{"molecule": "CCOC(=O)c1sc2nc(NC(=O)C3CCCCC3)sc2c1C", "subject.of.test": "Sphingosine 1-phosphate receptor 1 (Homo sapiens)", "pEC50": "< 4.52"}
{"molecule": "COc1cc2c(cc1OC)C(C)N(C(=O)c1cc3ccccc3o1)CC2 (stereo not given)", "subject.of.test": "Sphingosine 1-phosphate receptor 1 (Homo sapiens)", "pEC50": "< 4.02"}

**Query** Reported pEC50, molecule COC(=O)C1=CN(CCCN2CCCC2=O)C=C(C(=O)OC)C1c1ccccc1C(F)(F)F : ____
**Result** < 4.02

---

# subject.of.test: Sphingosine 1-phosphate receptor 1 (Homo sapiens)
# experiment.summary: direct activation of human S1P1 – cell-based, agonist mode, 60K MLSMR set, dose response (AID 468)
# EC50 per record follows

The following compounds have reported results that may help.
{"compound": "CCCc1cc(C(=O)Nc2sc3c(c2C#N)CCC3)no1", "reported.result": "> 95 µM"}
{"compound": "CCC(C)c1ccc2oc(-c3ccc(NC(=O)c4nnc[nH]4)cc3)nc2c1 (stereo unspecified)", "reported.result": "> 10 µM"}
{"compound": "CC(C)OC(=O)CSc1nc(N)c(C#N)c(-c2cccs2)c1C#N", "reported.result": "> 10 µM"}
{"compound": "COCCn1c(C)cc(C(=O)CSc2nc3ccccc3o2)c1C", "reported.result": "> 95 µM"}
{"compound": "COc1ccc(C(=O)C2C(=O)C(=O)N(CC3CCCO3)C2c2cccc(OC)c2)cc1 (stereo unspecified)", "reported.result": "> 95.1 µM"}
{"compound": "CCn1c(-c2cccc(Cl)c2)n[nH]c1=S", "reported.result": "> 95 µM"}
{"compound": "COc1ccc(NC(=O)c2cnn3c(C(F)(F)F)cc(-c4ccco4)nc23)cc1OC", "reported.result": "> 95 µM"}
{"compound": "COC(=O)Cc1sc(=O)[nH]c1Nc1ccccc1", "reported.result": "> 95 µM"}

**Query** Param readout= EC50; system= Sphingosine 1-phosphate receptor 1 (Homo sapiens); entry= CCN(CC)C(=O)CS/C(=N/C#N)Nc1ccccc1F ; returns value.
**Result** > 95 µM

**Query** Param readout= EC50; system= Sphingosine 1-phosphate receptor 1 (Homo sapiens); entry= Clc1ccc(OCc2nnc(-c3ccccc3Br)o2)c(Cl)c1 ; returns value.
**Result** > 95 µM

**Query** Param readout= EC50; system= Sphingosine 1-phosphate receptor 1 (Homo sapiens); entry= CC(C)c1cc(C(=O)N2CCN(C(c3ccccc3)c3ccccc3)CC2)no1 ; returns value.
**Result** > 10 µM
